System: HaCat cells
assaySummary: m6A methylation level of human HaCat keratinocytes, EpiQuik m6A RNA methylation quantification kit (Example 20)
Format: cell-based
measurementContext: HaCat cells, 50 nM docetaxel + 400 nM test compound, 24 hours
endpointName: m6A fold change relative to control group 1

Task: Requested field: m6A fold change relative to control group 1. Item: NC(=O)C1CCCc2c1[nH]c1cc(F)c(Cl)c(F)c21 (stereo not shown)
Output: 5.1

Task: Try NC(=O)[C@@H]1CCCc2c1[nH]c1ccc(Cl)cc21 next.
Output: 5.6

Task: Consider next the compound NC(=O)[C@H]1CCCc2c1[nH]c1ccc(Cl)cc21 in the same way.
Output: 1.0

Task: Repeat with NC(=O)C1c2[nH]c3ccc(Cl)cc3c2C2CCC1C2 (stereo not shown) [Compound 5]
Output: 2.9
